study system: Glutaminase kidney isoform, mitochondrial (Homo sapiens)
Sequence (O94925 whole entry, canonical isoform): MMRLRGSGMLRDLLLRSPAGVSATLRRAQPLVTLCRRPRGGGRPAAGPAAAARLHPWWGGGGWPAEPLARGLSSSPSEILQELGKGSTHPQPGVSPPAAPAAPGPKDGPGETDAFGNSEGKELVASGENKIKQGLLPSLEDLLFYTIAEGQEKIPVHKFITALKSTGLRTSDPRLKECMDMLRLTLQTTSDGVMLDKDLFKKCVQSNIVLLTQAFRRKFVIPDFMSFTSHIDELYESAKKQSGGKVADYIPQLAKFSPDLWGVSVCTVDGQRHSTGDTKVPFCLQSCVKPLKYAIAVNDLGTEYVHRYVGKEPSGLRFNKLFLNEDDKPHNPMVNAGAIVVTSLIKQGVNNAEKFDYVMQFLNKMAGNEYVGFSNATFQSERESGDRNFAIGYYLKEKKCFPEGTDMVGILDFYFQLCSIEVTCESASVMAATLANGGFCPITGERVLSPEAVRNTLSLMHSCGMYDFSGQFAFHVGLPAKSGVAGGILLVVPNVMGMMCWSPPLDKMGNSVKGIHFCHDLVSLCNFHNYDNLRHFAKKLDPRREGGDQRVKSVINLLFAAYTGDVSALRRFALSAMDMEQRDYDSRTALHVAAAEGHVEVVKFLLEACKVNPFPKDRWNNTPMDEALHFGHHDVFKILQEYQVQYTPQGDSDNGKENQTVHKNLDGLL
experiment: Enzymatic Activity Assay: The inhibition of purified recombinant human GAC by varying concentrations of inhibitors is assessed via a dual-coupled enzymatic assay. The glutamate produced by the glutaminase reaction is used by glutamate oxidase to produce α-ketoglutarate, ammonia, and hydrogen peroxide, with this hydrogen peroxide subsequently being used by horseradish peroxidase to produce resorufin in the presence of Amplex UltraRed. The assay buffer consisted of 50 mM Hepes (pH 7.4), 0.25 mM EDTA and 0.1 mM Triton X-100. GAC was incubated with potassium phosphate (10 minutes at room temperature) prior to incubation with inhibitor (10 minutes at room temperature). The final reaction conditions were as follows: 2 nM GAC, 50 mM potassium phosphate, 100 mU/mL glutamate oxidase (Sigma), 1 mM glutamine (Sigma), 100 mU/mL horseradish peroxidase (Sigma), 75 μM Amplex UltraRed (Life Technologies), and 1% (v/v) DMSO. The production of resorufin was monitored on a Perkin Elmer Envision plate reader (excitation 530 nm, emission 590 nm) either in a kinetics or endpoint mode (at 20 minutes). IC50 values were calculated using a four-parameter logistic curve fit.
measured property: IC50

O=C(NCc1cc(OC(F)(F)F)ccc1F)c1cn(CCC(F)Cn2cc(C(=O)NCc3ccccn3)nn2)nn1 (stereo unspecified): < 100 nM
